# measurementTarget: T1, human ROR1 expressed on the cell surface (human, UniProt Q01973 30-937)
# T1 construct: whole, on cells; also called cell surface-expressed ROR1 antigen; ROR1 on JeKo-1, Mino, CHO-human ROR1, MC38-human ROR1 and other cancer cell lines
# T1 sequence (Q01973 30-937): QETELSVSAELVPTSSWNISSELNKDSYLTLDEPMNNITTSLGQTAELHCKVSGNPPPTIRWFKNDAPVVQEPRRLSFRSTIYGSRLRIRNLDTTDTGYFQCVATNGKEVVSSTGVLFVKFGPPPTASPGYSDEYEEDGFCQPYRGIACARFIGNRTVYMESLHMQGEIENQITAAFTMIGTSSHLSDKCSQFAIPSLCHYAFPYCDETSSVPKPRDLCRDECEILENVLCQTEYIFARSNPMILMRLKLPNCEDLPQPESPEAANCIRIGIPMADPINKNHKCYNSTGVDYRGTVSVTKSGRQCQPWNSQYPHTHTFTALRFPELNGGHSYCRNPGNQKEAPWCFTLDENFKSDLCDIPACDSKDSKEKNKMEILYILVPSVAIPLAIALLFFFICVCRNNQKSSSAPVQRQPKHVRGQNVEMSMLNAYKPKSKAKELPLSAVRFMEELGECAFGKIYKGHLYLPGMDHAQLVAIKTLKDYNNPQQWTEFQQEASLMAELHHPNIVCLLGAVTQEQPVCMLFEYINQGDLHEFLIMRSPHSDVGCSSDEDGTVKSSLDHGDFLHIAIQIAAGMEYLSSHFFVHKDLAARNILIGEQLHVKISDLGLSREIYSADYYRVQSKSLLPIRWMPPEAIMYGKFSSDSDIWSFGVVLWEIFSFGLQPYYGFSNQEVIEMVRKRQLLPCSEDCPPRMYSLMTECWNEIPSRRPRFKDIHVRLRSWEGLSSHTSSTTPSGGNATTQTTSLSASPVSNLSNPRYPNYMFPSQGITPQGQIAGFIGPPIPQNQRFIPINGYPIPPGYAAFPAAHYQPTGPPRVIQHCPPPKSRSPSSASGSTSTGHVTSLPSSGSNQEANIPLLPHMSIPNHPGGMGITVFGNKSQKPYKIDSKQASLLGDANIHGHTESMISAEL
# testDetails: flow cytometry on MC38-human ROR1 cells, IgG titrated, FITC anti-human Fc detection, MFI ratio to 2nd Ab alone; log axis whose first tick is printed 0
experimentalEndpoint: EC50 (read off the curve)

Field: example entries. Status: answers known.
anti-ROR1 IgG antibody D2B12 (antibody, V domains shown, Full IgG form (human IgG1 constant region, lambda light chain), expressed in CHO-S cells) VH: EVQLLESGGGLVQPGGSLRLSCAASGFTFSNYDMSWVRQAPGKGLEWVSSISPSSGSSIYYADSVKGRFTISRDNSKNTLYLQMNSLRAEDTAVYYCAKAPGWCQAPSCYYDNAMDVWGQGTLVTVSS VL: QSVLTQPPSASGTPGQRVTISCSGSSSNIGNNDVSWYQQLPGTAPKLLIYDDSQRPSGVPDRFSGSKSGTSASLAISGLRSEDEADYYCGAWDDSLSGYVFGGGTKLTVLG :: ~0.2 µg/mL
anti-ROR1 IgG antibody BA6 (antibody, V domains shown, Full IgG form (human IgG1 constant region, lambda light chain), expressed in CHO-S cells) VH: EVQLLESGGGLVQPGGSLRLSCAASGFTFSNYDMSWVRQAPGKGLEWVSAIYHSGSSKYYADSVKGRFTISRDNSKNTLYLQMNSLRAEDTAVYYCARGGNGAWDTGFDYWGQGTLVTVSS VL: QSVLTQPPSASGTPGQRVTISCSGSSSNIGSNDVSWYQQLPGTAPKLLIYYDNNRPSGVPDRFSGSKSGTSASLAISGLRSEDEADYYCGAWDDSLSGYVFGGGTKLTVLG :: ~0.1 µg/mL

Exam item: Please give the documented EC50 (read off the curve) of anti-ROR1 IgG antibody C2E3 (antibody, V domains shown, Full IgG form (human IgG1 constant region, lambda light chain), expressed in CHO-S cells) VH: EVQLLESGGGLVQPGGSLRLSCAASGFTFSNYAMSWVRQAPGKGLEWVSSISHNSGSTYYADSVKGRFTISRDNSKNTLYLQMNSLRAEDTAVYYCAKFISARKSLGRSYSNGMDVWGQGTLVTVSS VL: QSVLTQPPSASGTPGQRVTISCTGSSSNIGSNDVTWYQQLPGTAPKLLIYADSKRPSGVPDRFSGSKSGTSASLAISGLRSEDEADYYCGTWDYSLSGYVFGGGTKLTVLG
Marked response: ~0.1 µg/mL
